Hello, the source for this data is patent US20250361295A1, in case you need it.

# target.or.test.system: T1, human LILRB4 (human, UniProt Q8NHJ6 22-448)
# T1 construct: whole, on cells; also called hLILRB4
# assay: FACS, 293F-hLILRB4 cells
measured.parameter: EC50

Challenge: Looking for the measured EC50 of ch7-B4-C1-C9 (antibody, V domains shown) VH: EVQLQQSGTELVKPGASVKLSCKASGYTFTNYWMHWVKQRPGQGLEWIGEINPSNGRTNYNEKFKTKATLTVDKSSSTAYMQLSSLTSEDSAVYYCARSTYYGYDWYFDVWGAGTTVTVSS VL: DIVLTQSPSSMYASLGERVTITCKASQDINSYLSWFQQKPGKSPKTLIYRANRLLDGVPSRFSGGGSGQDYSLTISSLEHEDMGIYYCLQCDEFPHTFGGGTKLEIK , can you help?
Response given: 540 pM
